Entries and their measured normalized growth follow.
testProtocol: chemical genetic growth profiling, strain panel (AID 1159580);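 also: tested at 20 µM; growth read once vehicle control cultures reached saturation at 30 °C; 1 = growth at the plate median or of vehicle wells; lower values mean less growth of the strain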
conditionInfo: S. cerevisiae deletion strains, growth OD, locus YDR052C, strain DBF4, hits give low values
Screen size: about 5,500 compounds; about 2,000 (36%) were called active. Roughly 18% stayed inconclusive and do not appear here. Some of the results follow.
property: normalized growth

[[record]]
compound = "CS/C(Nc1cccc(C(F)(F)F)c1)=C(/C#N)S(=O)(=O)c1ccc(Cl)cc1"
assayvalue = 0.932

[[record]]
compound = "S=C(N/N=C\\c1cccs1)NC1CC2CCC1C2 (stereo unspecified)"
assayvalue = 0.945

[[record]]
compound = "O=C(Nc1cccnc1)c1cc2c(s1)-c1ccccc1CC2"
assayvalue = 0.919

[[record]]
compound = "OC(CSc1ccccc1)CN1CCN(c2nc(-c3ccccc3)ns2)CC1 (stereo unspecified)"
assayvalue = 0.981

[[record]]
compound = "S=C(Nc1ccc(Cl)cc1)Nc1ccc(Cl)cc1"
assayvalue = 0.894

[[record]]
compound = "COc1ccc(C2CC(c3ccc(C)cc3C)=NN2C(C)=O)cc1 (stereo unspecified)"
assayvalue = 0.999

